Test system: Saccharomyces cerevisiae;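 further: PSI is a weighted mean of sequencing reads over stability bins, variants kept only with over 10 reads, mCherry proximal and sfGFP distal, peptide attached via GGGS linker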
assay_details: protein stability index of tFT-peptide fusion (C-terminal peptide) (PSI (0-1 scale)); higher = more stable (slower turnover)
condition_details: genetic background: wild type; temperature: 30 C
quantity_name: protein stability index
Quick one: just the number, no unit, thanks!

### Prompt Give its protein stability index value. Item: `SLVLFRSCSFFS`
### Response 0.669

### Prompt Thanks! And `SLLPLHPPLTLP` ?
### Response 0.674

### Prompt Another sequence: `ESKKYQQDNITR`
### Response 0.608

### Prompt Could you do the same for `RRLVGEEGRTHV` , please?
### Response 0.638

### Prompt Note, next up: `YCPPHRCEAECI`
### Response 0.657

### Prompt And `SIVFFLPPVSSS` ?
### Response 0.724

### Prompt And what about the sequence `EFPRDLVFDWYG` ?
### Response 0.857

### Prompt Consider next the sequence `SLTYSDGCTKSI` in the same way.
### Response 0.742

### Prompt // same read-out, input: `MVGASFAILGFI`
### Response 0.699

### Prompt Next entry: `LRCPLMYDIFYN`
### Response 0.726

### Prompt Please do the same for `ARALLGVGWYWV` as well.
### Response 0.417

### Prompt Then what about the sequence `GGRIRLLTYFGR` ?
### Response 0.601

### Prompt Now consider `KKVKKKRSKKNT` .
### Response 0.66

### Prompt Please do the same for `YNINIKKENITE` as well.
### Response 0.68

### Prompt Another sequence to look at: `GRRRDREAVVPW`
### Response 0.732

### Prompt Proceed to `PLLPPPLSPFPH`
### Response 0.659

### Prompt Item: `TILKLLSEELDK`
### Response 0.613

### Prompt One more sequence: `YRDQAGTGSWRM`
### Response 0.692

### Prompt Next up: `GAQVGVRFLFSI`
### Response 0.55

### Prompt Could you do the same for `MEAAGVGRVVWR` , please?
### Response 0.632

### Prompt Do the same for `SVDRVIPQERQS` please
### Response 0.697

### Prompt Next record, please: `WVVVGWVGVGFR`
### Response 0.445

### Prompt # repeat for `ARCGNSAPWHVG`
### Response 0.693

### Prompt Now consider `CYVCVDVCKRGC` .
### Response 0.535

### Prompt Also, `FYWFPYYFSHLH` please.
### Response 0.602

### Prompt Same thing, different sequence: `PHHSPPTGPPND`
### Response 0.687

### Prompt Next sequence: `GCVSAVSKCFFL`
### Response 0.751

### Prompt Repeat with `TFFPPLPPPSPS`
### Response 0.702

### Prompt Now consider `VTEWGVKWWEDR` and answer again.
### Response 0.714

### Prompt Same question, `RRPAQDAEPIQP` this time
### Response 0.661

### Prompt Request: `SPFLTPSSHPPS`
### Response 0.681

### Prompt Next record, please: `VLVSYAIVILYL`
### Response 0.193

### Prompt Then `PPIPNPPPHPLP` ?
### Response 0.657

### Prompt Param item: `CGILACSVCTFF`
### Response 0.509

### Prompt # iterate: `RNRGPAIRVRRK`
### Response 0.635

### Prompt Okay, and `PFIAHSACAALN` ?
### Response 0.604

### Prompt Can you handle `KNKNKKTPARYR` next?
### Response 0.692

### Prompt Then this sequence: `LDKLLFIFNCGC`
### Response 0.66

### Prompt Also check `EPSAPYYCVTKG`
### Response 0.728

### Prompt Param item: `PPLTPPTPVPPG`
### Response 0.694

### Prompt Same read-out for `SHPPPALVPLFK` ?
### Response 0.678

### Prompt Further, for `RHRFDHWGPGPW` ?
### Response 0.72

### Prompt Item: `GCGFRGVYSCWV`
### Response 0.678

### Prompt Same for `FFPPPPPATPPA`
### Response 0.663

### Prompt Next sequence up: `RGRGRVRPRRKR`
### Response 0.683

### Prompt Continue with `VQWPLLVVGCMG`
### Response 0.399

### Prompt Entry `FGSLCPRAHSLV` please
### Response 0.71

### Prompt Also `RGFSLSCCERSI` , if possible.
### Response 0.749

### Prompt Next sequence up: `LESLPSPLHLPM`
### Response 0.629

### Prompt Subsequent entry: `HGQGWRPTYLSI`
### Response 0.796

### Prompt Next: `PSNNHRPPGCAD`
### Response 0.685

### Prompt Try `PPPARPAPLSPP` next.
### Response 0.692

### Prompt Check `PLSTPLSPALLS` too.
### Response 0.602

### Prompt Same question, `CFGFMFLLLFDV` this time
### Response 0.405

### Prompt // same read-out, input: `LSLLPPLCFPSH`
### Response 0.821

### Prompt # repeat for `RLLFPTLTAYLL`
### Response 0.63

### Prompt // repeat for `PEGPPRPPLHPS` and report
### Response 0.696

### Prompt Also, `PPTPMRAQRHPR` please.
### Response 0.579

### Prompt Now give it for `KTLALSAQHPGS` too.
### Response 0.645

### Prompt Same lookup for `GVRAGVRRAGVG` , please.
### Response 0.402

### Prompt What about this sequence? `ANKIRMKYMRTG`
### Response 0.614

### Prompt `CQYSRRRRQELH` ?
### Response 0.65

### Prompt // repeat for `PHPQPRPTAPSP` and report
### Response 0.718

### Prompt Another: `DPLKSFDAVRQD`
### Response 0.617

### Prompt Another sequence to check: `LLAVLSPAAPLP`
### Response 0.696

### Prompt Same lookup for `YSCDEDPVTVRG` , please.
### Response 0.699

### Prompt Entry to check: `IKMKRMTKIKKK`
### Response 0.745

### Prompt For `RRHNPARSRARG` then?
### Response 0.686

### Prompt What would you report for `AIGPLTCFFAFL` ?
### Response 0.695

### Prompt Please do the same for `ASFVCWSVCALG` as well.
### Response 0.413

### Prompt Note, next up: `YPSLPQIVLATV`
### Response 0.503

### Prompt Now the same for `TKHCRFCKSGFV`
### Response 0.713

### Prompt Cool, now `AARFRAVPVFGN`
### Response 0.661

### Prompt And the next one, `CESASGAAWLGG` ?
### Response 0.723

### Prompt Next up: `VFLCNGVGGRGG`
### Response 0.681

### Prompt Follow-up item: `GYEDTLKKILEI`
### Response 0.673

### Prompt Lookup `PRIFPDPVFPSL`
### Response 0.688

### Prompt Also `RVSVSWDDGVMV` , if possible.
### Response 0.652

### Prompt Check `LGLSTVKLEVPW` too.
### Response 0.773

### Prompt Same question, `LLHWGRWRRGRR` this time
### Response 0.722

### Prompt What do you have for `GSLASRGVFVVV` ?
### Response 0.614

### Prompt Next sequence: `GGLACTLAAFYL`
### Response 0.733
